System: T-47D breast
Assay: NCI-60 one-dose screen, 48 h (100 = growth as untreated, 0 = no growth, -100 = all killed)
Conditions: 10 µM unless noted
About 83,000 compounds went through this panel and 20% of them were active in at least one assay; those are over-represented in the sample as a whole. Active and inactive are the calls of the source. How the source made its calls: active means growth percent below 10; inactive means the rest.
Listing of entries alongside the reported growth.

* C=CCc1cc(Cl)cc2c(OC(C)=O)c(C(C)=O)c(-c3ccccc3)nc12 | 90.8% (inactive)
* CC1Cc2c(N(C)C)ncnc2N(C)c2ccc(Cl)cc21 (stereo not given) | 37.1% (inactive)
* COC1=CC(c2ccc[nH]2)=N/C1=C\c1[nH]c(C)c(C(=O)CCCCC(=O)Nc2ccccc2)c1C | 63.9% (inactive)
* Nc1c(C(=O)Nc2cccc(C(F)(F)F)c2)sc2nc3c(cc12)CCCCCC3 | -7% (active)
* Cc1cc(N/C=c2\sc3ncnn3c2=O)no1 | 96.1% (inactive)

The measured growth that CCCOC(=O)C1(O)CCCC1 showed for T-47D breast is 97.2% (inactive)

Reading of growth for Cc1cc2c(C(C)C)c(O)c(O)c(C=NCCCCCCC(=O)O)c2c(O)c1-c1c(C)cc2c(C(C)C)c(O)c(O)c(C=NCCCCCCC(=O)O)c2c1O with T-47D breast: 26.9% (inactive)

Short answer on T-47D breast for Cc1cc(Nc2nc(-c3ccc(F)cc3)nc3ccccc23)n[nH]1 , growth: 29.3% (inactive)

# growth measured on T-47D breast for item O=C(CNc1ccc(Cl)cc1)Nc1ccc(-c2nc3ccccc3s2)cc1 = 4.58% (active)

growth value, target or system T-47D breast, for O=C(CCCn1c2c(sc3ccccc32)c(=O)n2nnc(-c3ccccc3)c12)NCCc1cnc[nH]1 : -25.4% (active)

###

Tested on: SW-620 colon
Assay: NCI-60 one-dose screen, 48 h (100 = growth as untreated, 0 = no growth, -100 = all killed)
Conditions: 10 µM unless noted
This is part of a sample that, as a whole, favours compounds with a hit. Of some 83,000 tested, about 20% had one in any assay. Activity calls are given as the source filed them. The calls were made as follows: active = growth percent below 10; inactive = the rest.
Readout Name: growth

* Cc1ccc2nc(-c3c(CCCO)noc3N)[nH]c(=O)c2c1 | 103% (inactive)

Next molecule, please.
Observed growth, SW-620 colon, CCO/C=N/NC(=O)c1ccncc1 : 104% (inactive)

###

Test system: UACC-62 melanoma
Assay: NCI-60 one-dose screen, 48 h (100 = growth as untreated, 0 = no growth, -100 = all killed)
Conditions: 10 µM unless noted
Compounds without any hit were thinned out: in the full panel of roughly 83,000, 20% have a hit.
Quick reference: growth of the listed items.
Report the figure in % without appending any unit label.

These recorded examples may help you get a feel for the data.
* O=c1[nH]c2ccccc2cc1-c1nnc(Cc2ccccc2)o1 | 47.9
* NC(=O)c1c(NC(=O)c2ccc(OCC3CCCO3)cc2)sc2c1CCCC2 (stereo not given) | 85
* COc1cc2c3c(c(=O)oc2cc1OS(=O)(=O)c1ccc(C(F)(F)F)cc1)CCCCC3 | 68.1
* CCc1cccc(C)c1NC(=O)c1sc2nc3c(cc2c1N)C(=O)CCC3 | 46.5
* CCOC(=O)/C=C\C(=O)NC(N)=O | 99.3

Briefly, growth measured for COc1ccc(NC(=O)c2cc3ccccc3nc2Nc2cc(OC)c(OC)c(OC)c2)cc1 : 64.4

The recorded growth for entry CCCCC[C@@H]1Cc2cc(O)c(C(=O)O)c3c2[C@H](C[C@@]2(CCCO2)O3)O1 equals 110

# molecule NS(=O)(=O)c1ccc(NCC(=O)Nc2ccc(-c3nc4ccccc4s3)cc2)cc1 ; its growth = 38

Record O=C(CN1CCOCC1)Nc1ccc(-c2nc3ccccc3s2)cc1 . Reported growth: 100

Briefly, growth measured for O=c1oc2cc(OS(=O)(=O)c3ccccc3)c(Cl)cc2c2c1CCCCCC2 : 70.3
